B1: HDV Ribozyme (parent)
chain: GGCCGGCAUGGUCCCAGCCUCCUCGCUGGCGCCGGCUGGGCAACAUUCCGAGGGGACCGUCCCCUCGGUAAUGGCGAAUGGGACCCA

# Variants of: B1
# ASSAY_SUMMARY: self-cleavage, relative activity (ratio to wild type); higher = more cleavage; co-transcriptional
Field: self-cleavage. Provide a value for each of the variants that follow.
One number for each entry.

Completed entries (count: 5):
>  <POLYMER_SEQUENCE>
GGCCGGCAUGGUCCCAGCCUCCUCGCUGGCGCCGGCUGGGCAAAAUUCCGAGGGGACCGUCCCCUCGGUAAUGGCGAAUGGGAACCA [C44A C84A]

>  <self-cleavage>
0.541

$$$$
>  <POLYMER_SEQUENCE>
GGUCGGCAUGGUCCCAGCCUCCUCGCUGGCGCCGGCUGGGCAGCAUUCCGAGGGGACCGUCCCCUCGGUAAUGGCGAAUGGGACCCA [C3U A43G]

>  <self-cleavage>
0.342

$$$$
>  <POLYMER_SEQUENCE>
GGCCGGCAUGGUCCCAGCCUCCUCGCUGGCGGCGGCUGGGCAACAUUCCGAGGCGACCGUCCCCUCGGUAAUGGCGAAUGGGACCCA [C32G G54C]

>  <self-cleavage>
0.086

$$$$
>  <POLYMER_SEQUENCE>
GGCCGGCAUGGUCCCAGCCUCCUCGCUGGCGCCGGCUGGGCAACAUUCUGAGGGGACCGUCCCCUCGGUAAUGGCGGAUGGGACCCA [C49U A77G]

>  <self-cleavage>
0.95

$$$$
>  <POLYMER_SEQUENCE>
GGCCGGCAUGGUCCUAGCCUCCUCGCUGGCGCCGGCUGGGCACCAUUCCGAGGGGACCGUCCCCUCGGUAAUGGCGAAUGGGACCCA [C15U A43C]

>  <self-cleavage>
0.0594

$$$$

For each entry beneath this line, provide reported self-cleavage.
1. GGCCGGCAUGGUCCCAGCCUCCUCGCUGGCGCCGGCUGGGCGACAUUCCGAGGGGACCGUCCCCUCGGUAAUGGCGAAAGGGACCCA [A42G U79A]
2. GGCCGGCAUGGUCCCAGCCUCCUCGCUGGCGCCGGCUGGGCAACAUUCCGAGGGGACCGUCCCCUCGGUAAUGGCGAAUGGGGCGCA [A83G C85G]
3. GGCCGGCAUGGUGCCAGCCUCCUCGCUGGCGCCGGCUGGGAAACAUUCCGAGGGGACCGUCCCCUCGGUAAUGGCGAAUGGGACCCA [C13G C41A]
4. GGCCGGCAUGGUCCCAGCCUCCUAGCUGGCGCCGGCUGAGCAACAUUCCGAGGGGACCGUCCCCUCGGUAAUGGCGAAUGGGACCCA [C24A G39A]
5. GGCCGGCAUGGUCCCAGCCUCCUCGCUGGCGCCAGCGGGGCAACAUUCCGAGGGGACCGUCCCCUCGGUAAUGGCGAAUGGGACCCA [G34A U37G]
6. GGCCGGCACGGUCCCAGCCUCCUCGCUGGCGCCGGCUGGGCAACAUUCCGAGGGGACCGUCCCCUCGGUAUUGGCGAAUGGGACCCA [U9C A71U]
7. GGCCGGCUUGGUCCCAGCCUCCUCGCUGGCGCCGGCUGGGCAACAUUCCGAGGGGACCGUCCCCUCGGUAAUGGCCAAUGGGACCCA [A8U G76C]

1. 0.573
2. 1.12
3. 0.0489
4. 0.0779
5. 0.219
6. 0.969
7. 0.965

Give measured self-cleavage for every item shown.
1. GGCCGGCAUGGUCCCAGCCUCCUCGCUGGCGCCGGCUGGGCAACAUUCCGAGAGGACCGUCCCCUCGGUAAUGGCGAGUGGGACCCA [G53A A78G]
2. GGCCGGCAUGGUCCCAGCCUCCUCGCUGGCGACGGCUGGGCAUCAUUCCGAGGGGACCGUCCCCUCGGUAAUGGCGAAUGGGACCCA [C32A A43U]

[0.618, 0.108]

Quick one: give me self-cleavage for each item below, same order please.
1. GGCGGGCAUGGUCCCAGCCUCCUCACUGGCGCCGGCUGGGCAACAUUCCGAGGGGACCGUCCCCUCGGUAAUGGCGAAUGGGACCCA [C4G G25A]
2. GGCCGGCAUGGUCCCAGCCUCCUCGCUGGCGUCGGCUGGGCAACAUUCCGAGGGGACCGUCCCCUCGGUAAUGGCGAAUGGGACCCG [C32U A87G]
3. GGCCGGCAUGGCCCCAGCCUCCUCGCUGGCGCCGGCUGGGCAACAUUCCGAGGGGACCGUCCCCUCGGUAAUGGCUAAUGGGACCCA [U12C G76U]

1. 0.0256
2. 0.787
3. 0.489
